Reference source: PubChem BioAssay (NCI)

Test system: A498 renal
measurement notes: NCI tumour cell line growth inhibition, 48 h
Answer each item with its documented GI50.

Notebook: C(=N\Nc1ccccn1)/c1ccccn1 , GI50 read as 273 nM

The reported value for CC(=O)OC[C@H]1O[C@@H](n2ccc(=O)[nH]c2=O)[C@H](OC(C)=O)[C@@H]1OC(C)=O in terms of GI50 is > 100000 nM

Note to self: GI50 recorded for COc1ccc(-c2cc(-c3ccc(OC)c(OC)c3)nc(SCCCC(=O)NO)n2)cc1 was 1390 nM

The reported GI50 of the compound Oc1ccc(Cc2ccc(O)c3ncccc23)c2cccnc12 was 223 nM

O=Cc1c(-c2cc(O)ccc2O)nc2sccn12 yielded GI50 of 29500 nM

* * *

Tested on: SK-OV-3 ovarian
measurement notes: NCI tumour cell line growth inhibition, 48 h
*1 amine or outer side, *2 acyl side, *3 side chain or, on linkers, in order; H or OH if unused. Where a SMILES comes first, the peptide text is derived from it. Bridges are numbered along the chain shown (N, C = ends). Roman numbers before positions name the chains, in order. [ ]: non-standard residue; d: D form. Actinocin(9to1) = Cc1c2oc3c(C)ccc(C(=O)[*:1])c3nc-2c(C(=O)[*:2])c(N)c1=O; NMeV = CN[CH](C(=O)O)C(C)C; Sar = CNCC(=O)O
Answer each item with its documented TGI.

TGI recorded for this molecule, CCN1C2=NC(=O)N(C)C(=O)C2(Cl)C(C(SC)S(=O)(=O)c2ccc(C)cc2)c2ccccc21 (stereo not drawn) , is > 100 µM

The molecule listed as COc1ccc(C=C2C(=O)OC(C)(C)OC2=O)cc1OC has a reported TGI of > 100 µM

The reported TGI of the molecule NNc1nnc(-c2ccccc2)nc1Cc1ccccc1 was > 100 µM

Entry Cc1cccc(=O)c([O-])c1.Cc1cccc(=O)c([O-])c1.Cc1cccc(=O)c([O-])c1.Cc1cccc(=O)c([O-])c1.[Th+4] ; TGI = > 100 µM

Please fill in: TGI reported for C=C1CN=C(Nc2ccc(F)cc2F)S1 = > 100 µM

# molecule Cc1cn([C@@H]2C[C@](C)(CO)N(C)O2)c(=O)[nH]c1=O ; its TGI = > 100 µM

So, Cc1cc2nc3c(N)nn(CCN(C)C)c3nc2cc1C ? Its TGI was > 100 µM

// sample CCOc1ccc(N=Cc2cccc3cccnc23)cc1 , its TGI was > 100 µM

Reported TGI ( O=c1n(C2CCCCC2)c(=C(Cl)Cl)c(=C(Cl)Cl)n1C1CCCCC1 ) = > 100 µM

Recorded result, CC(=O)Nc1ccc(/C=C/[N+](=O)[O-])cc1 , TGI: 24.1 µM

Lab note: measured TGI of C/C(=N/S(=O)(=O)c1ccc(Cl)c(Cl)c1)OCC(C)(C)C was > 100 µM

Please fill in: TGI reported for CN(C)CCCn1c2c(c3cnccc3c1=O)C(=O)c1ccccc1-2 = 28.7 µM

The molecule identified as CCn1c(O)c(C(=O)NC(C)c2ccc([N+](=O)[O-])cc2)c(=O)n(CC)c1=S (stereo not drawn) registered its TGI at 7.38 µM

So, CCCCn1c2cc(OCc3cn(-c4ccc(Cl)cc4)nn3)ccc2c2ccnc(C)c21 ? Its TGI was 13.4 µM

Query COc1cc(Nc2nc3cc(N)cc(N)c3nc2-c2ccccc2)cc(OC)c1 yields TGI of 40.2 µM

# molecule CC(C)N(C(=O)C12C3C4C5(C#N)C3C1(I)C5C42I)C(C)C (stereo not drawn) ; its TGI = > 100 µM

TGI recorded for this molecule, CC(O)/C=C/C(CCC(C)CO)C(C)C (stereo not drawn) , is > 100 µM

Value of TGI reported for the molecule CC12CCC3C(CC=C4CC(O)CCC43C)C1C/C(=C\N1CCCC1)C2=O (stereo not drawn) is > 100 µM

Lab book: TGI of O=C1CCc2cc3c(cc21)C(C(=O)O)CC3 (stereo not drawn) noted as > 100 µM

According to the records, this molecule CCCC1c2c(ccc3ccccc23)Oc2ccc3ccccc3c21 displays TGI of > 100 µM

The molecule listed as Cc1cn(C2CC(F)C(CO)O2)c(=O)[nH]c1=O (stereo not drawn) has a reported TGI of > 100 µM

Record O=C(c1ccccc1)c1ccc2nc(-c3c(Cl)c(Cl)c(Cl)c(Cl)c3C(=O)Nc3ccco3)[nH]c2c1 , field TGI: > 100 µM

Entry COc1cccc(OC/C(N=Cc2ccncc2)=N/NC(=O)c2ccncc2)c1 , TGI reported as > 100 µM

Measured TGI, CCC(C)C(NC(=O)C1CCCN1)C(=O)NC(C(=O)NCC(=O)NC(CC(N)=O)C(=O)NC(CC(C)C)C(=O)NC(CC(C)C)C(=O)NC(CCCCN)C(N)=O)C(C)C (stereo not drawn) (H-PIVGNLLK-NH2; configuration not given here) : > 75 µM

TGI reported for this molecule CC(C)(C)C(=O)O[C@H]1C=C[C@@H](O)[C@@H]2[C@H]1[C@@H]1C=C[C@H]2C1 : > 100 µM

Recorded TGI (molecule O=C1/C(=C/C=C/c2ccccc2)CCC1CNc1ccc(Br)cc1 (stereo not drawn) ): > 100 µM

Lab note: measured TGI of CC(=O)OC1C(=O)C(O)C(C)OC1O[C@@H]1C[C@@]2(C)[C@@H]3CC=C4[C@@H](C[C@H](O)C(=O)C4(C)C)[C@]3(C)C(=O)C[C@]2(C)[C@H]1[C@@](C)(O)C(=O)/C=C/C(C)(C)O (stereo partly drawn) was > 9.33 µM

# TGI of COCCN(C(=O)c1ccccc1)C1CCC(=O)c2[nH]c3ccccc3c21 (stereo not drawn) = 29 µM

Kindly note the recorded TGI for CCCCCCCCCCC[N+]1(Cc2ccccc2)CC2CCN(Cc3ccccc3)CC2C1 (stereo not drawn) , which is 3.13 µM

Note to self: TGI recorded for O=C(NCCNCCO)N/N=C/c1ccccc1 was > 100 µM

// field: TGI; key: Cc1c2oc3c(C)ccc(C(=O)NC4C(=O)NC(Cc5ccc(O)cc5)C(=O)N5CCCC5C(=O)N(C)CC(=O)N(C)C(C(C)C)C(=O)OC4C)c3nc-2c(C(=O)NC2C(=O)NC(Cc3ccc(O)cc3)C(=O)N3CCCC3C(=O)N(C)CC(=O)N(C)C(C(C)C)C(=O)OC2C)c(N)c1=O (stereo not drawn) (I: TYP[Sar][NMeV] / II: TYP[Sar][NMeV]; ester I:1-I:C, II:1-II:C; linker I:N-II:N via Actinocin(9to1); configuration not given here) ; value = > 100 µM

# TGI (molecule: c1cc2c3c(c1)[C@@H]1O[C@@H]1c1cccc(c1-3)[C@@H]1O[C@H]21 ) is > 100 µM

Lab note: measured TGI of CC1Cc2c(cc(N)nc2Br)NC1=O (stereo not drawn) was > 100 µM

C#Cc1cccc(Nc2ncnc3cc(OCCOC)c(OCCOC)cc23)c1 has a reported TGI of 5.2 µM

CCCCN(CCCC)C1=Nc2ccccc2-n2c(nnc2C(=O)OCC)C1 has a reported TGI of > 100 µM

Looking up O=C(O)c1cc2ccccc2c(O)c1O , I see its TGI listed as 29 µM

Looking up N#C[C@H]1C(=O)C(c2nc3ccccc3[nH]2)S[C@H]1c1ccccc1 (stereo partly drawn) , I see its TGI listed as > 100 µM

# TGI of N#CC(NNC(=O)c1ccccc1O)c1ccc(O)cc1 (stereo not drawn) = > 100 µM
